Assay: Water solubility
Type: physicochemical
Settings: deionized water (DI)
property: solubility

>>> reported("C[C@H]1O[C@@H](n2cc(-c3ccccc3)c3c(Nc4ccc(CN(C)C)cc4)ncnc32)[C@H](O)[C@@H]1O [Compound 1]")
"> 5 mg/mL"
>>> reported("CCN(CC)CCNCCc1ccc(Nc2ncnc3c2c(-c2ccccc2)cn3[C@@H]2O[C@H](C)[C@@H](O)[C@H]2O)cc1 [Compound 5]")
"> 5 mg/mL"

* * *

Property: IC50; scope: individual compounds
Biological target: partially purified pig heart adenosine kinase (Sus scrofa)
Sequence (A0A5G2R0F5 1-362): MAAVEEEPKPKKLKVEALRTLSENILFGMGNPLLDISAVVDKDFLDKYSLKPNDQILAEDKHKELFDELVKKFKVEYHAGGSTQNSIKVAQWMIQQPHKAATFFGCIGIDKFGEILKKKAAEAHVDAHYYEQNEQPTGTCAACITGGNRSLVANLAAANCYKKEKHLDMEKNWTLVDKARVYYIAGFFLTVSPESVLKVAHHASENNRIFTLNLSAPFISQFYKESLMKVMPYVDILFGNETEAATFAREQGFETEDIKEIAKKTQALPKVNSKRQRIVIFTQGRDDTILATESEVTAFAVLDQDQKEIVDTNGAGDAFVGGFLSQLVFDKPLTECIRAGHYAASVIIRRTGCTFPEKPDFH
Structures can show the parent of a compound that is named as a salt.
property: IC50 (nM)

>>> reported("C[C@H]1O[C@@H](n2cc(-c3ccccc3)c3c(Nc4ccc(CCN(C)C)cc4)ncnc32)[C@H](O)[C@@H]1O")
1
>>> reported("C[C@H]1O[C@@H](n2cc(-c3ccccc3)c3c(Nc4ccc(CCN5CCOCC5)cc4)ncnc32)[C@H](O)[C@@H]1O")
2
>>> reported("C[C@H]1O[C@@H](n2cc(-c3ccccc3)c3c(Nc4ccc(C(N)=NO)cc4)ncnc32)[C@H](O)[C@@H]1O [Compound 37, hydrochloride]")
5
>>> reported("C[C@H]1O[C@@H](n2cc(I)c3c(NCc4ccccn4)ncnc32)[C@H](O)[C@@H]1O")
70
>>> reported("C[C@H]1O[C@@H](n2cc(I)c3c(NCc4cccnc4)ncnc32)[C@H](O)[C@@H]1O")
120

* * *

Experiment: Water solubility
Format: physicochemical
Settings: pH 9 (100 mM glycine)
Protocol: The sample was sonicated for a period of up to 20 minutes. If a solution was not obtained, further solvent was added and the process was repeated until a clear solution was obtained, and the results were recorded. Solutions used were 50 mM potassium biphthalate (pH 4); 100 mM glycine (pH 9); 25 mM sodium carbonate and 25 mM sodium bicarbonate (pH 10); or deionized water (DI).
property: solubility

>>> reported("CC(=O)NS(=O)(=O)c1ccc(Nc2ncnc3c2c(-c2ccccc2)cn3[C@@H]2O[C@H](C)[C@@H](O)[C@H]2O)cc1")
"> 1000 µg/mL"

From: patent US5726302A
